Target: β-secretase(BACE) (Homo sapiens)
Construct: purchased Panvera
Test: BACE % Inhibition Assay ((Aedens)-[…]-(Dabcyl K-amide) substrate)
Type: biochemical
Settings: 3 μM test compound; % error ±10%; read-out: % Inhibition
Entries annotated with measured inhibition at 3 µM
Respond with the bare value in %.

{"Molecule": "NC1=Nc2ccc(Oc3ccccc3)cc2CN1CCC(=O)NC12CC3CC(CC(C3)C1)C2 [Compound 365]", "Result value": 113}

Query: inhibition at 3 µM; subject: CN(C(=O)c1cccc(CN2Cc3cc(Oc4cccc(NS(=O)(=O)c5ccccc5)c4)ccc3N=C2N)c1)C1CCCCC1 [Compound 110]
75

Bench note: what inhibition at 3 µM did NC1=Nc2ccc(Oc3ccccc3)cc2CN1CCCCC(=O)N(C1CCCCC1)C1CCCCC1 [Compound 19] show?
67

Record request: inhibition at 3 µM value, item NC1=Nc2ccc(C(=O)c3ccccc3)cc2CN1CCNC(=O)C1CCCCC1 [Compound 7]
76

* * *

Target: β-secretase(BACE) (Homo sapiens)
Construct: purchased Panvera
Assay: BACE Assay-1 (MCA-substrate, IC50)
Assay type: biochemical
Conditions: procedure of Example 158; read-out: IC50 μM (158)
Reported IC50 is given for each of the following compounds.
Value expressed in µM; do not type the unit.

Observe how each entry below is paired with its result.
{"Cpd smiles": "NC1=Nc2ccc(Oc3cccc(NC(=O)OCc4ccccc4)c3)cc2CN1CCCCC(=O)N(C1CCCCC1)C1CCCCC1", "IC50 [µM]": 0.66}
{"Cpd smiles": "C[C@H](CNC(=O)C1CCCCC1)N1Cc2cc(Oc3ccccc3)ccc2N=C1N", "IC50 [µM]": 0.25}
{"Cpd smiles": "NC1=Nc2ccc(Oc3ccccc3)cc2CN1CCC(=O)NC1CCCCC1", "IC50 [µM]": 0.19}

--- query ---
# query: IC50 of entry `COc1ccc(NC(=O)C(C)(C)C)c(-c2ccc3c(c2)CN(Cc2cccc(C(=O)N(C)C4CCCCC4)c2)C(N)=N3)c1`
0.54

* * *

Biological target: β-secretase(BACE) (Homo sapiens, UniProt P56817)
Construct: purchased Panvera
Sequence (P56817 46-501): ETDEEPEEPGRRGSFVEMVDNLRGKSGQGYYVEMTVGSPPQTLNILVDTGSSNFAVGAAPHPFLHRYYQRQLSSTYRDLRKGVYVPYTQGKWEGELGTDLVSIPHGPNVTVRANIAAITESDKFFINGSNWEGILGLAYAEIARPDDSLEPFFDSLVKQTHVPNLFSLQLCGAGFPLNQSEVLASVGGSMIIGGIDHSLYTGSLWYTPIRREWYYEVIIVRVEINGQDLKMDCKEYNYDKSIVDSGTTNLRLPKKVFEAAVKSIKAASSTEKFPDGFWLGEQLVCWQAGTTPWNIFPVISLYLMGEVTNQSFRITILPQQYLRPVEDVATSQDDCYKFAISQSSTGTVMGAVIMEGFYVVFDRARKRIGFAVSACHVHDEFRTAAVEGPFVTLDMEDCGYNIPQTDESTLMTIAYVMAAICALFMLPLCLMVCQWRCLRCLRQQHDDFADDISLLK
Experiment: BACE Assay-2 (FS1 substrate, IC50 and Ki)
Type: biochemical
Settings: procedure of Example 159, FS1 substrate; read-out: Ki μM (159)
Label fulfilled when Ki < 0.2 µM; otherwise not fulfilled.

Record excerpt, results attached:
{"Compound": "CN(CCN1Cc2cc(Oc3ccccc3)ccc2N=C1N)C(=O)OC(C)(C)C [Compound 425]", "Class": "fulfilled"}
{"Compound": "COc1ccccc1-c1ccc2c(c1)CN([C@@H](CCC(=O)N(C)CCc1ccccc1)C1CCCCC1)C(N)=N2 [Compound 721]", "Class": "not fulfilled"}
{"Compound": "NC1=Nc2ccc(Oc3ccccc3)cc2CN1[C@@H](CCC(=O)N[C@@H](CO)C(=O)O)C1CCOCC1 [Compound 771]", "Class": "fulfilled"}
{"Compound": "CN(C(=O)c1cccc(CN2Cc3cc(-c4ccccc4O)ccc3N=C2N)c1)C1CCCCC1 [Compound 169]", "Class": "fulfilled"}
{"Compound": "Cc1ccccc1-c1ccc2c(c1)CN(CCNC(=O)C1CCCC1)C(N)=N2 [Compound 657]", "Class": "fulfilled"}
{"Compound": "COC(=O)[C@H](COCc1ccccc1)N(C)C(=O)CC[C@@H](C1CCOCC1)N1Cc2cc(Oc3ccccc3)ccc2N=C1N [Compound 786]", "Class": "fulfilled"}

Take the compound CN(C(=O)c1cccc(CN2Cc3cc(-c4cccc5ccccc45)ccc3N=C2N)c1)C1CCCCC1 [Compound 330] and say whether its Ki is less than 0.2 µM.
not fulfilled

Dear reviewer, please state whether CCCN1Cc2cc(Oc3cccc(NC(=O)OCc4ccccc4)c3)ccc2N=C1N [Compound 67] has Ki strictly beneath 0.2 µM.
not fulfilled

Regarding COc1ccc(NC(=O)C(C)(C)C)c(-c2ccc3c(c2)CN(Cc2cccc(C(=O)N(C)C4CCCCC4)c2)C(N)=N3)c1 [Compound 160] , kindly confirm whether its Ki is beneath 0.2 µM.
fulfilled

Given CN(Cc1cccc2ccccc12)C(=O)CCCCN1Cc2cc(C(=O)c3ccccc3)ccc2N=C1N [Compound 51] , is recorded Ki strictly lower than 0.2 µM?
not fulfilled

Quick check: Ki of CN(C(=O)CC[C@@H](C1CCCCC1)N1Cc2cc(Oc3ccccc3)ccc2N=C1N)C1CCOCC1 [Compound 638] under 0.2 µM?
not fulfilled

In the record for CN(C(=O)CCCN1Cc2cc(Oc3ccccc3)ccc2N=C1N)C1CCCCC1 [Compound 177] , is Ki less than 0.2 µM?
not fulfilled

I'd appreciate it if you could check whether NC1=Nc2ccc(Oc3ccccc3)cc2CN1C(CCNC(=O)CC1CCCC1)C1CCCCC1 (stereo not shown) [Compound 393] has Ki smaller than 0.2 µM.
not fulfilled

Please indicate whether the reported Ki of CC(C)CCC(=O)NCCN1Cc2cc(-c3ccccc3Cl)ccc2N=C1N [Compound 654] is strictly below 0.2 µM.
fulfilled

Say whether its Ki is strictly beneath 0.2 µM. Entry: NC1=Nc2ccc(Oc3ccccc3)cc2CN1C(CNC(=O)C1CCCCC1)C1CCCCC1 (stereo not shown) [Compound 294]
fulfilled

Is the reported Ki for CN(C(=O)CCN1Cc2cc(Oc3ccccc3)ccc2N=C1N)C1C2CC3CC(C2)CC1C3 (stereo not shown) [Compound 618] strictly below 0.2 µM?
fulfilled
